- Test system: cancer cell lines classified IM, MSL, M
- MEASUREMENT NOTES: PRISM screen compound sensitivity correlated with IM, MSL and M subtype of cell lines (101 gene signature)
- Assay type: cell-based
- ASSAY CONDITIONS: classification of association of compound sensitivity with IM, MSL and M cell line classes; test data set

MOLECULE | TNBCType test
COc1cc(-c2ccc(=O)[nH]n2)ccc1OC(F)F [K37561857] | MSL
C[C@@H](Oc1ccc2[nH]nc(/C=C/c3cnn(CCO)c3)c2c1)c1c(Cl)cncc1Cl [K17203476] | MSL
COc1cc(Nc2ncc(F)c(Nc3ccc4c(n3)NC(=O)C(C)(C)O4)n2)cc(OC)c1OC [K20285085] | MSL

###

- Test system: cancer cell lines classified IM, MSL, M
- MEASUREMENT NOTES: PRISM screen compound sensitivity correlated with IM, MSL and M subtype of cell lines (101 gene signature)
- Type: cell-based
- ASSAY CONDITIONS: correlation of PRISM compound sensitivity with MSL subtype correlation; test cell set (188 cell lines)
Below, each entry is listed alongside its reported MSL Corr test.
The answer should be a number; do not append a unit.

MOLECULE | MSL Corr test
CC(O)CN1CCN(CC(=O)[O-])CCN(CC(=O)[O-])CCN(CC(=O)[O-])CC1.[Gd+3] (stereo not shown) [gadoteridol] | −0.00929

// query MSL Corr test value for entry COC(=O)CC[C@@H]1N=C(c2ccccn2)c2cc(Br)ccc2-n2c(C)cnc21 [remimazolam]
−0.1059

// query MSL Corr test value for entry COc1ccc(C2CNC(=O)NC2)cc1O[C@H]1C[C@@H]2CC[C@H]1C2 [atizoram]
−0.09365

###

- System: cancer cell lines, DetermaIO classes
- MEASUREMENT NOTES: Association of PRISM compound sensitivity with DetermaIO (DTIO) cell line classes
- Type: cell-based
- ASSAY CONDITIONS: correlation of PRISM compound sensitivity with DTIO (DetermaIO); test cell set (188 cell lines)
MEASURED PARAMETER: DTIO Corr test
The answer should be a number; do not append a unit.

Some entries whose results are on file:
COMPOUND | SYSTEM TESTED | ENDPOINT RESULT
OCCn1cc(-c2cnc3nnn(Cc4ccc5ncccc5c4)c3n2)cn1 [PF-04217903] | cancer cell lines, DetermaIO classes | −0.00139
COC(=O)[C@H](NC(=O)c1cc(-c2ccccc2)nc2ccccc12)c1ccccc1 [SB-218795] | cancer cell lines, DetermaIO classes | −0.06114
O=[N+]([O-])c1ccc([As](=O)(O)O)cc1 [nitarsone] | cancer cell lines, DetermaIO classes | −0.04129

Now take the following compound into account.
// query DTIO Corr test value for entry O=C(O)c1ccc(N2C(=O)/C(=C\c3ccc(-c4ccc([N+](=O)[O-])cc4)o3)C=C2c2ccccc2)cc1 [4E1RCat]
0.01627

###

Below, each entry is listed alongside its reported DTIO Corr train.
- Test system: cancer cell lines, DetermaIO classes
- MEASUREMENT NOTES: Association of PRISM compound sensitivity with DetermaIO (DTIO) cell line classes
- Format: cell-based
- ASSAY CONDITIONS: correlation of PRISM compound sensitivity with DTIO; training cell set
The answer should be a number; do not append a unit.

Some entries whose results are on file:
MOLECULE | ENDPOINT RESULT
C=C(C)CN1CC[C@]23c4c5ccc(O)c4O[C@H]2c2[nH]c4ccccc4c2C[C@@]3(O)C1C5.Cl.O [SDM25N] | −0.12
CN(C)C(=O)CCSC(SCCC(=O)O)c1cccc(/C=C/c2ccc3ccc(Cl)cc3n2)c1 (stereo not shown) [MK-571] | 0.02432
COc1cc2ncnc(Nc3ccc(O)c(Br)c3)c2cc1OC [WHI-P154] | −0.1245

Now take the following molecule into account.
// query DTIO Corr train value for entry C[C@H](Nc1ncnc2[nH]cnc12)c1cc2ccc(F)cc2nc1-c1ccccn1 [AMG319]
−0.03859

###

- Tested on: cancer cell lines classified IM, MSL, M
- MEASUREMENT NOTES: PRISM screen compound sensitivity correlated with IM, MSL and M subtype of cell lines (101 gene signature)
- Format: cell-based
- ASSAY CONDITIONS: correlation of PRISM compound sensitivity with MSL subtype correlation; test cell set
Assign labels as follows, please: 1.0 for MSL Corr test below -0.05; 0.0 for MSL Corr test equal to or exceeding -0.05.

MOLECULE | QUALITATIVE LABEL
N=C(N)NC(=N)Nc1cccc(Cl)c1 [m-Chlorophenylbiguanide] | 0.0
CCCCCCCC/C=C\CCCCCCCC(=O)N[C@@H](CO)Cc1ccc(O)cc1 [OMDM-2] | 1.0
CN[C@H]1CN(c2ccc3c(=O)c(C(=O)O)cn(-c4nccs4)c3n2)C[C@@H]1OC [voreloxin] | 1.0

Switching to the query record.
Does COc1cc2ncnc(Sc3nnc(C)s3)c2cc1OC [SKLB1002] have MSL Corr test strictly under -0.05?
1.0

###

- Tested on: cancer cell lines classified IM, MSL, M
- MEASUREMENT NOTES: PRISM screen compound sensitivity correlated with IM, MSL and M subtype of cell lines (101 gene signature)
- Assay type: cell-based
- ASSAY CONDITIONS: correlation of PRISM compound sensitivity with M subtype correlation; test cell set (188 cell lines)
Below, each entry is listed alongside its reported M Corr test.
The answer should be a number; do not append a unit.

COMPOUND | ENDPOINT RESULT
Cc1occc(=O)c1[O-].Cc1occc(=O)c1[O-].[O]=[V+2] [bis(maltolato)oxo-vanadium(IV)] | −0.1743
O=C(O)/C=C1\CCCc2ccccc2C1O (stereo not shown) [NCS-382] | 0.1059
C=CC(=O)Nc1cccc(Sc2nc(Nc3ccc(N4CCN(C)CC4)cc3)ncc2Cl)c1 [WZ8040] | 0.1805
COc1cc2c(NC3CCN(C(C)C)CC3)nc(N3CCC(F)(F)CC3)nc2cc1OCCCN1CCCC1 [UNC0642] | 0.1456
NC(=O)c1cccc(-c2cc(Nc3ccc(OC(F)(F)F)cc3)ncn2)c1 [GNF-2] | −0.07177
O=C(O)c1ccc(N2C(=O)/C(=C\c3ccc(-c4ccc([N+](=O)[O-])cc4)o3)C=C2c2ccccc2)cc1 [4E1RCat] | −0.08971

// query M Corr test value for entry C[C@H](Nc1ncnc2[nH]cnc12)c1cc2ccc(F)cc2nc1-c1ccccn1 [AMG319]
−0.1713

// query M Corr test value for entry CCCN(CCC)CCc1ccc(OC)c(OCCc2ccccc2)c1 [NE-100]
−0.05032

// query M Corr test value for entry CC(O)CN1CCN(CC(=O)[O-])CCN(CC(=O)[O-])CCN(CC(=O)[O-])CC1.[Gd+3] (stereo not shown) [gadoteridol]
−0.02135

// query M Corr test value for entry O=c1[nH]cnc2ccccc12 [4-HQN]
0.04595

// query M Corr test value for entry O=[N+]([O-])c1ccc([As](=O)(O)O)cc1 [nitarsone]
0.02346

###

Below, each entry is listed alongside its reported M Corr test.
- Tested on: cancer cell lines classified IM, MSL, M
- MEASUREMENT NOTES: PRISM screen compound sensitivity correlated with IM, MSL and M subtype of cell lines (101 gene signature)
- Assay type: cell-based
- ASSAY CONDITIONS: correlation of PRISM compound sensitivity with M subtype correlation; test cell set (188 cell lines)

Some entries whose results are on file:
COMPOUND | SYSTEM TESTED | M Corr test
Nc1nc(-c2ccc(Cl)c(Cl)c2)c(-c2ccncc2)s1 | cancer cell lines classified IM, MSL, M | 0.03776
Clc1ccc(C2(c3ccc(-c4cn[nH]c4)cc3)CCNCC2)cc1 | cancer cell lines classified IM, MSL, M | −0.1665
Cl.NC1CCN(c2cccc(Cl)n2)CC1 [SR-57227A] | cancer cell lines classified IM, MSL, M | −0.08168
COc1ccc(C2=N[C@@H](c3ccc(Cl)cc3)[C@@H](c3ccc(Cl)cc3)N2C(=O)N2CCNC(=O)C2)c(OC(C)C)c1 | cancer cell lines classified IM, MSL, M | −0.07413

Missing value: M Corr test, cancer cell lines classified IM, MSL, M, entry Cc1cccc(NC(=O)N[C@@H]2N=C(c3ccccc3)c3ccccc3N(CC(=O)c3ccccc3C)C2=O)c1 . Fill in?
−0.05702

###

- System: cancer cell lines classified IM, MSL, M
- MEASUREMENT NOTES: PRISM screen compound sensitivity correlated with IM, MSL and M subtype of cell lines (101 gene signature)
- Format: cell-based
- ASSAY CONDITIONS: correlation of PRISM compound sensitivity with MSL subtype correlation; test cell set (188 cell lines)
Below, each entry is listed alongside its reported MSL Corr test.
The answer should be a number; do not append a unit.

Some entries whose results are on file:
SMILES INPUT | ENDPOINT RESULT
COc1cc2c(NC3CCN(C(C)C)CC3)nc(C3CCCCC3)nc2cc1OCCCN1CCCC1 | 0.1697
C/C(=N\NC(=O)[C@H]1C(=O)NC[C@@H]1c1ccccc1)c1cccc(Br)c1 | 0.002402
C#Cc1cccc(Nc2ncnc3cc(OCCOC)c(OCCO)cc23)c1 | 0.3027

// query MSL Corr test value for entry Cc1cc(C)cc(C(=O)N(C)[C@H](Cc2ccc(-c3ccccc3)cc2)C(=O)N[C@@H](Cc2c[nH]c3ccccc23)C(=O)O)c1
−0.1214
